Tested on: MS2 coat protein
Test: apparent KD of MS2 coat protein; designed switch direction (-1 OFF switch, 1 ON switch): 1; higher = weaker reporter binding
Conditions: input ligand: microRNA oligo, concentration not stated
Give measured apparent KD of MS2 coat protein for each item. Keep answers brief.
Number first, unit second.

stdin: Record request: apparent KD of MS2 coat protein value, item GUGGAGGGUUGAGGAUAUUGAUUGCAUAUGUUUAACAUGAGGAUCACCCAUGUGGGUUGCGGUUUCGAGAAGGUAGGUUGCUGG [salish99_SSNG2_r04_042] (Eterna round: R96, puzzle: Same State NG 2)
stdout: 59.4 nM

stdin: Can you handle ACAUGAGAGAUAGGAUAUCUUGUACCUACAUGUGACAUGAGGAUCACCCAUGUGGUAAGUAUGAGAGAGAAGGAUCAGAUAUGU [Equivalence 36 - Jieux - Same State NG 2] (Eterna round: R96, puzzle: Same State NG 2) next?
stdout: 14.3 nM

stdin: Can you handle GUGGUCAGACAUGAGGAUCACCCAUGUGGAAUAAAUAACACACAGGAUAUGGAAUAUAAAAUAUACCAGAAGGGUGGAUUGGUG (Eterna round: R96, puzzle: Same State NG 3) next?
stdout: 226 nM

stdin: Can you handle UGUUGUAUUACAGGAUAUCUAUUAGUUUGAUUUAGAGAAGGGUAUUCACAUGAGGAUCACCCAUGUAUAUACGAGGAAGUUGUG [JMF's solution 94] (Eterna round: R96, puzzle: Same State NG 1) next?
stdout: 41.4 nM

###

Tested on: K4 kissing-loop RNA reporter;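 note: bound reporter read as fluorescence of individual clusters on recovered sequencing chips by microscopy, with normalized cluster intensities fitted with a binding model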
Assay: apparent KD of K4 kissing-loop reporter; higher = weaker reporter binding
Conditions: Eterna round: R107; input ligand: FMN 200 uM
Think of 200 nM as a floor: if apparent KD of K4 kissing-loop reporter stands on it or above, it is 1; beneath it, -1.

stdin: Check the entry UUUAACGAGUGAUGUUCGAAAAGUAAUGGUUAGGAUAUCGUUUUUUCGAGAAGGAACCUCGAAGUGAUACGAAAGUAUCGCUUCG [FMN A 2] : does apparent KD of K4 kissing-loop reporter equal or exceed 200 nM?
stdout: -1

stdin: Can you handle AAUAUCUAGUAUAUAUUUUAUAAAACAGAUACCAGUGAUUAUAUACACCCUUGGCAGCUGGACGAGUGAUGUUCGUAUAUAUUAA [JR_SSTheophyA_Sub008] next?
stdout: -1

stdin: Can you handle UGGGAUGGUUCGGCCGCCACUAUGGUGCAGUGAUGUUGCAUCGUAGUAAAUCAUUCCAUUUACCGUAGGACCGGGAACCUUACGC [Mavelege] next?
stdout: -1

stdin: Can you handle AAGUAGCUCUCGGCCGCCACUCCUCAGUGAUGUUGAGAUAUUAAGAGCCAAUUGGCUCAUAUAAAGAGGACCGGGAGAGCUACAA [AK4 SS Tryptophan B] next?
stdout: 1

stdin: Can you handle UUUGGUUUCUCGGCCGCCACUCGUUGGUUAUGGGCUUCAGGGAUAUAGUGAUGUUAUGUAUAGAAGAGGACCGGGAGAAGGUUUG [ExTryptoB.Dt] next?
stdout: 1

stdin: Can you handle CUAGCUAGCAUGGAAACAUGCUAGCUAGAUUAGGAUAUGACGUAAGUCAGAAGGGAUAAAUGGAGUGAUGUUCCGGACGCAAGUC [#2 Same State - FMN A Attempt #4 (HarryS)] next?
stdout: 1
